# System: c-Abl (mouse)
# PROTOCOL DESCRIPTION: phosphorylation enrichment, bacterial display (enrichment ratio); higher = better substrate or ligand; peptides without Tyr show the background
PROPERTY: phosphorylation enrichment

Query :: Item under review: KRIETYFSKNF [PLP1_Y50_L46R_YF] . Reported phosphorylation enrichment?
Result :: 0.752

Query :: And RETLTYAQAQR [BRD1_Y33] ?
Result :: 0.963

Query :: And YRAPGYREVVI [TNS2_Y673] ?
Result :: 2.11

Query :: And MSRFIYSTDFF [NTRK1_Y676_D674Y_YF] ?
Result :: 0.664

Query :: And ETCLAYMEKRI [TEKT1_Y118_R119M] ?
Result :: 0.818

Query :: And RASDFYSQQMA [GBP6_Y334_A331S_YF] ?
Result :: 0.738

Query :: And MGSFNYLGFPR [SPTLC2_Y178_A182P_YF] ?
Result :: 0.584

Query :: And DFAIVYGTIIL [GPR179_Y460_G455D] ?
Result :: 0.846

Query :: And SDFSSYARTSI [TERT_Y949_YF] ?
Result :: 0.55

Query :: And IVAEFYDNLPH [DEGS1_Y284_A280V_YF] ?
Result :: 0.694

Query :: And TRNVRYLTLDI [AKR1C2_Y305_N300T] ?
Result :: 0.557

###

# System: Fer (mouse)
# PROTOCOL DESCRIPTION: phosphorylation enrichment, bacterial display (enrichment ratio); higher = better substrate or ligand; peptides without Tyr show the background
For each entry below, report its phosphorylation enrichment value.
Output spec: single numeric token, no unit.

Query :: Item under review: GEEIKYTLWLS [OTC_Y55_M56T] . Reported phosphorylation enrichment?
Result :: 0.712

Query :: And DNQFAYLKAII [HNF4A_Y288_E285Q_YF] ?
Result :: 0.592

Query :: And SRASFYRKGGC [ALK_Y1283_Y1278S_YF] ?
Result :: 0.476

Query :: And SLQAHYDTPRS [DOK7_Y405_R402Q] ?
Result :: 0.593

Query :: And RRAKGYPIDLF [ITGB2_Y125_YF] ?
Result :: 1.08

Query :: And RAIDMYLMGCF [GABRB2_Y308_K303R] ?
Result :: 0.799

Query :: And GIVKAYFVRAR [AIPL1_Y267_YF] ?
Result :: 0.463

Query :: And ETMNKYDLSGR [MYEF2_Y164] ?
Result :: 0.422

Query :: And RMLRKYQELMS [KRT74_Y425_E424K] ?
Result :: 0.522

Query :: And FSKDIYKRVTG [PANK2_Y405_N404I_YF] ?
Result :: 0.355

Query :: And LEIETYRRLRD [KRT12_Y429_L433R] ?
Result :: 0.351

Query :: And PELINYHQHNS [BTK_Y361] ?
Result :: 0.664

Query :: And VNTTLYEKFTY [TEK_Y1108] ?
Result :: 5.72

Query :: And FETSHYLASPD [CTNND2_Y1217_P1218L_YF] ?
Result :: 0.502

###

# ASSAY TARGET: Grb2 SH2 (UniProt P62993)
# Sequence (P62993 whole entry, looked up): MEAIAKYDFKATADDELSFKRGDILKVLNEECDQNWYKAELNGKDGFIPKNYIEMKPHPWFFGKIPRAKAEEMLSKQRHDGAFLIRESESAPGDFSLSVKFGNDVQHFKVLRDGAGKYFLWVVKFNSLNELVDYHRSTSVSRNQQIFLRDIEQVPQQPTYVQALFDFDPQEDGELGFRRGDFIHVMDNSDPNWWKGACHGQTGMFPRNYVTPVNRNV
# PROTOCOL DESCRIPTION: SH2 binding enrichment of the phosphorylated peptide, bacterial display (enrichment ratio); higher = better substrate or ligand; peptides without Tyr show the background
Parameter threshold = 0.8. Response is T when SH2 binding enrichment meets or exceeds it, else F.

Query :: Determine whether this sequence has SH2 binding enrichment no lower than 0.8: PNKAVYTKMMT [G6PD_Y401_E398K]
Result :: T

Query :: And PINEPYGDDLD [JUP_Y693_M697L] ?
Result :: F

Query :: And MSRFIYSTDFF [NTRK1_Y676_D674Y_YF] ?
Result :: T

Query :: And LEIETYRRLRD [KRT12_Y429_L433R] ?
Result :: F

Query :: And VNTTLYEKFTY [TEK_Y1108] ?
Result :: F

Query :: And ASPKSYPSQKH [CAP2_Y316_T311A] ?
Result :: F

###

# ASSAY TARGET: MERTK (UniProt Q12866)
# Sequence (Q12866 whole entry, looked up): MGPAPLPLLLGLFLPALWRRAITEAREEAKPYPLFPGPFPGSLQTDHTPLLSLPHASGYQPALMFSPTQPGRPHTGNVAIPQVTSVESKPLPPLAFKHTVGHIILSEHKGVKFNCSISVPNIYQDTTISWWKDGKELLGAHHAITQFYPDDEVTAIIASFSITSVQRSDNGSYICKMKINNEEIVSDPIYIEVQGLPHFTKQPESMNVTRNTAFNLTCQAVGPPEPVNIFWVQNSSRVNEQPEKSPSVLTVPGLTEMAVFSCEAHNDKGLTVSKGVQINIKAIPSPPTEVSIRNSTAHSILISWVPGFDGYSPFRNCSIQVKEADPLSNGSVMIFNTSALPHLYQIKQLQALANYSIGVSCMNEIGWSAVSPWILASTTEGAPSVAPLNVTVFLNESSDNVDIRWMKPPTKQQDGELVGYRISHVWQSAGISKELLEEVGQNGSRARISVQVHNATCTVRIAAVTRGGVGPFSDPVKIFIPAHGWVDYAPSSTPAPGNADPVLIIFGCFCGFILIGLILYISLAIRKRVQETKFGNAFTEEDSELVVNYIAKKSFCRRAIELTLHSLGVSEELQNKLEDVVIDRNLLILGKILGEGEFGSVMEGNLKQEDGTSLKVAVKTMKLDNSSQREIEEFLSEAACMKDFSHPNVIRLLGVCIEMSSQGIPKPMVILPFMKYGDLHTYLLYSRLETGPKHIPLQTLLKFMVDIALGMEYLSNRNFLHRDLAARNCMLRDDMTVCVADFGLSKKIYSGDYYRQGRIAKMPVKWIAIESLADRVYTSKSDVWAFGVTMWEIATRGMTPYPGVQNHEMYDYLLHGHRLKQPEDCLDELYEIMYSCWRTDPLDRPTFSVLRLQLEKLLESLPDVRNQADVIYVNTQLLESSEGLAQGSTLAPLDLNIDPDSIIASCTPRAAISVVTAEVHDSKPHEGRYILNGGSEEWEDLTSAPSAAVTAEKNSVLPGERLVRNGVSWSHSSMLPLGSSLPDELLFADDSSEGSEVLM
# PROTOCOL DESCRIPTION: phosphorylation enrichment, bacterial display (enrichment ratio); higher = better substrate or ligand; peptides without Tyr show the background
For each entry below, report its phosphorylation enrichment value.
Output spec: single numeric token, no unit.

Query :: Item under review: HKGASYVFRLS [PTPRD_Y891] . Reported phosphorylation enrichment?
Result :: 0.512

Query :: And HSGIFYKPESL [L2HGDH_Y103_YF] ?
Result :: 0.934

Query :: And HLVLNYGVCIC [JAK2_Y613_V617I] ?
Result :: 0.535

Query :: And YAFQLYDLDRD [CHP2_Y123] ?
Result :: 2.83

Query :: And AVSHRYDLGGL [QPRT_Y162_A158V] ?
Result :: 0.379

Query :: And PDKRIYQFTAA [SKAP2_Y197] ?
Result :: 0.999

Query :: And SMAKFYASGIA [ACADSB_Y373_E376G_YF] ?
Result :: 0.464

Query :: And RESSGYLRLAF [MEP1A_Y481] ?
Result :: 1.07

Query :: And CYSSEYHYVGG [CTSC_Y345_Y340C] ?
Result :: 4.76

Query :: And SNNFIYTTLGV [FAM83B_Y639_K640T_YF] ?
Result :: 6.9

Query :: And DLVHPYVHKIL [SF3B1_Y570_R568H] ?
Result :: 0.435

Query :: And FDNSVYQKTTE [LDLR_Y828_P826S] ?
Result :: 0.432

Query :: And MTRDIYRASYY [ALK_Y1278_A1274T] ?
Result :: 0.827

Query :: And ALKWGYTVKGI [OAT_Y158_R154L] ?
Result :: 0.304

###

# ASSAY TARGET: EPHB1 (UniProt P54762)
# Sequence (P54762 whole entry, looked up): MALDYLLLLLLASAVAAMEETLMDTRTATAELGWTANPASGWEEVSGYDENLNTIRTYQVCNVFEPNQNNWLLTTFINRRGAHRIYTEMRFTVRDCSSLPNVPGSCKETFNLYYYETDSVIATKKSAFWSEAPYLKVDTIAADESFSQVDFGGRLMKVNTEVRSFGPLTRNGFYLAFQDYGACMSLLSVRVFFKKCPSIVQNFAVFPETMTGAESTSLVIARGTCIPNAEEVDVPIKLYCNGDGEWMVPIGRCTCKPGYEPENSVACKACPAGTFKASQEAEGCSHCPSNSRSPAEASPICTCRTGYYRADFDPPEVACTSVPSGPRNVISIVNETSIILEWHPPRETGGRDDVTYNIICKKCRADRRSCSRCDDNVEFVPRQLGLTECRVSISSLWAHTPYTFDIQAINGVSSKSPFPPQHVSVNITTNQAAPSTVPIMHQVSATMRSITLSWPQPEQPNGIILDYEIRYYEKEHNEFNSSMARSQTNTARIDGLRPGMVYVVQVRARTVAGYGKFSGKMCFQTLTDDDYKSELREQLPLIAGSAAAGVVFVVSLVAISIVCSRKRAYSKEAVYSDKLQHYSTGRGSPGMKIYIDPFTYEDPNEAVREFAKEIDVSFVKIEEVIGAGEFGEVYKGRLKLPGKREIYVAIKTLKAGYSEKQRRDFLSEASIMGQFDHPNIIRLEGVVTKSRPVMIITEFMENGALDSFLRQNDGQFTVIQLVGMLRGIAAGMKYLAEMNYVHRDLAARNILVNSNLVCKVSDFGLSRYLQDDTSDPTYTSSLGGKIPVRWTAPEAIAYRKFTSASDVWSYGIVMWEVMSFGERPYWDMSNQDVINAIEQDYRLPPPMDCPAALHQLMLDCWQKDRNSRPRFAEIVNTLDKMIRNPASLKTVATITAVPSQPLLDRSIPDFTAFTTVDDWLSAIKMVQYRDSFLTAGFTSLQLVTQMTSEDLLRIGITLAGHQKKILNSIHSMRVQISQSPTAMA
# PROTOCOL DESCRIPTION: phosphorylation enrichment, bacterial display (enrichment ratio); higher = better substrate or ligand; peptides without Tyr show the background
PROPERTY: phosphorylation enrichment
Output spec: single numeric token, no unit.

Query :: Item under review: RMETAYGPSVT [MXRA5_Y2717_E2716A] . Reported phosphorylation enrichment?
Result :: 0.413

Query :: And TEDPEYDVQSK [PTCHD3_Y335] ?
Result :: 0.521

Query :: And VVRSLYEDLED [VHL_Y185_I180V] ?
Result :: 0.711

Query :: And EDGCIYPGTIA [SMN1_Y109_A111G] ?
Result :: 0.7

Query :: And KVDKEYEVRVR [GHR_Y226] ?
Result :: 0.459

Query :: And QKINNYLTVPA [SLC9A1_Y683] ?
Result :: 1.34

Query :: And DAKAIYDFTDT [PDK1_Y136] ?
Result :: 1.43

Query :: And DISEPYKVYRI [IRF8_Y107] ?
Result :: 0.537

Query :: And ASTDYNKRGDF [PDHA1_Y243_Y243N] ?
Result :: 0.348

Query :: And NAGDYYDLYGG [PTPN11_Y63_T59A] ?
Result :: 16.3

Query :: And KKYPDYIQIAM [SGMS2_Y59] ?
Result :: 10

Query :: And QMIETYFDFRL [NSMF_Y506] ?
Result :: 3.62

Query :: And GYEEAYSVFKK [PAFAH1B1_Y28] ?
Result :: 0.498

Query :: And PTEAQYRFIFM [PTPN11_Y511_Q506P_YF] ?
Result :: 0.876

Query :: And VLDCHYPEDEV [C1QBP_Y188] ?
Result :: 0.589

Query :: And FLLTVYSIFSK [SGCE_Y38] ?
Result :: 0.643

Query :: And HAVFIYDICHV [TWNK_Y508_V507I_YF] ?
Result :: 3.04

Query :: And HKGASYVFRLS [PTPRD_Y891] ?
Result :: 0.593

Query :: And FTYDPYSEEDP [IL2RB_Y387] ?
Result :: 0.564

Query :: And DMDATYRPMYS [JUP_Y701] ?
Result :: 0.441

Query :: And DPEATYTTSGG [EPHA2_Y772] ?
Result :: 0.533

Query :: And EACRSYSHVVL [CHST6_Y168] ?
Result :: 0.454

Query :: And FQKDVYNIPPS [NEDD9_Y177_D178N_YF] ?
Result :: 0.437

Query :: And LATINYPFEKG [NDUFS8_Y84_P79L] ?
Result :: 0.565

Query :: And RPLVVYPWTQR [HBB_Y36_L32P] ?
Result :: 1.11

Query :: And EFLHKYKGFKI [SYNE1_Y6953_Q6951H_YF] ?
Result :: 0.458

Query :: And YCRHNYGVVES [HLA-DRB1_Y112] ?
Result :: 1.52

Query :: And GQETSYIEDNC [PAH_Y24] ?
Result :: 0.83

Query :: And SVVVPYETPEV [TP53_Y220_P222T] ?
Result :: 0.715

Query :: And NKVQFYIPDMN [NCR1_Y84_K82Q] ?
Result :: 0.501

Taken from the supplement of paper PMC10065799.
